I'd be grateful if you could share measured GI50 for these entries.
- Test system: M19-MEL
- Experimental Details: NCI tumour cell line growth inhibition, 48 h
Calls of active or inactive are those of the source. No stated cut-off is given here; in the data, active = GI50 up to about 1.1 µM and inactive = higher.

Exercise: Tell me its GI50 given CC12OC3(O)C4C5CC(C6C5C3C61)C42 (configuration not stated) as the entry.
Solution: > 100 µM (inactive)

Exercise: Give GI50 for the following compound: `Cc1cc(N(CCC#N)CCC#N)ccc1/C=C(\NC(=O)/C=C/c1ccccc1)NC(=O)Nc1ccccc1C`
Solution: > 100 µM (inactive)

Exercise: State its GI50: O=c1n(CC2CO2)c(=O)n(CC2CO2)c(=O)n1CC1CO1 (configuration not stated)
Solution: 53.7 µM (inactive)

Exercise: Report measured GI50; entry is `Cc1cc(C)nc(NS(=O)(=O)c2ccc(Nc3c4ccccc4nc4c(C(=O)N5CCN(CCOS(C)(=O)=O)CC5)ccc(Cl)c34)cc2)n1`
Solution: > 100 µM (inactive)

Exercise: Report GI50 for `CCOc1ccc(NC(=O)/C(Cc2nc3ccccc3nc2O)=N\O)cc1`
Solution: > 100 µM (inactive)

Exercise: Annotate the compound `Cc1ccc(-c2cc(=O)c3cc(C)c(C)c(C(=O)O)c3o2)cc1N` with its measured GI50.
Solution: > 100 µM (inactive)

Exercise: Return GI50 (reported value) for this compound: `C/C(=N\NC(=S)N1CCC(N2CCCCC2)CC1)c1ccccn1`
Solution: 3.71 µM (inactive)

Exercise: Look up and state reported GI50 for `CC(C)(C)c1cc(Oc2ccc(C#N)c(C#N)c2)cc(C(C)(C)C)c1`
Solution: > 100 µM (inactive)

Exercise: Provide one value: measured GI50 of `COc1ccc(-c2cc(Cc3cccs3)c(=O)[nH]n2)cc1`
Solution: 40.3 µM (inactive)

Exercise: Identify measured GI50 corresponding to `CCOC(=O)COS(=O)(=O)C(F)(F)F`
Solution: > 100 µM (inactive)

Exercise: Provide one value: measured GI50 of `C=CCNC(=S)N/C=C1\C(=O)Oc2ccccc2C1=O`
Solution: > 100 µM (inactive)

Exercise: Read off the recorded GI50 for `C=C1CCCC(C)(C)[C@@H]1CC/C(C)=C/Cn1c2cccc(=O)c-2nc2ccccc21`
Solution: 1.26 µM (inactive)

Exercise: Fill in GI50 for record `C[C@]12CCC(=O)C=C1CC[C@@H]1[C@@H]2CC[C@]2(C)C(=O)NC(=O)C[C@@H]12`
Solution: > 100 µM (inactive)

Exercise: Give the reported value of GI50 for this record: `CCOC(=O)C(C(=O)OCC)=C1C=C(c2ccccc2)c2ccccc21`
Solution: 52.5 µM (inactive)

Exercise: Determine from records and report GI50 for `Nc1c(C(=O)Nc2ccccc2)[n+]([O-])c2ccccc2[n+]1[O-]`
Solution: 15 µM (inactive)

Exercise: Provide only the value of recorded GI50 for `CCOc1ccc(NC(=O)C2=C(C)NC(C)=C(C(=O)Nc3ccc(OCC)cc3)C2c2ccc(O)c(OC)c2)cc1`
Solution: > 100 µM (inactive)

Exercise: Identify the reported GI50 for the following entry. `Clc1ccc(-n2nnc(C3=NCCCN3)c2-c2ccccc2)cc1`
Solution: > 100 µM (inactive)

Exercise: Using the record for C=CCCCCCCCCCP(=O)(c1ccccc1)c1ccc2c(c1)OCCOCCOCCOCCO2 (configuration not stated) , state its measured GI50.
Solution: 18.4 µM (inactive)

Exercise: Tell me measured GI50 for CC(=O)OC1C(COC(N)=O)OC(n2c(-c3ccc(C)cc3)cc(-c3ccccc3)c(C#N)c2=O)C(OC(C)=O)C1OC(C)=O (configuration not stated) please.
Solution: > 100 µM (inactive)

Exercise: State its GI50: NC(CCCNCc1ccccc1O)C(=O)O (configuration not stated)
Solution: > 100 µM (inactive)

Exercise: Provide measured GI50 value, entry: `CCNC(=O)C#CC(=O)NCC`
Solution: > 100 µM (inactive)

Exercise: # return recorded GI50 for input `CP1(=O)CCCCC1`
Solution: > 100 µM (inactive)
